target: human recombinant HDAC6 (Homo sapiens, UniProt Q9UBN7); construct: purchased Calbiochem Inc. 382180; experiment: HDAC6 enzyme activity inhibition (HDAC Fluorimetric Drug Discovery Kit); assay type: biochemical; conditions: HDAC1 IC50 / HDAC6 IC50
Sequence (Q9UBN7 whole entry): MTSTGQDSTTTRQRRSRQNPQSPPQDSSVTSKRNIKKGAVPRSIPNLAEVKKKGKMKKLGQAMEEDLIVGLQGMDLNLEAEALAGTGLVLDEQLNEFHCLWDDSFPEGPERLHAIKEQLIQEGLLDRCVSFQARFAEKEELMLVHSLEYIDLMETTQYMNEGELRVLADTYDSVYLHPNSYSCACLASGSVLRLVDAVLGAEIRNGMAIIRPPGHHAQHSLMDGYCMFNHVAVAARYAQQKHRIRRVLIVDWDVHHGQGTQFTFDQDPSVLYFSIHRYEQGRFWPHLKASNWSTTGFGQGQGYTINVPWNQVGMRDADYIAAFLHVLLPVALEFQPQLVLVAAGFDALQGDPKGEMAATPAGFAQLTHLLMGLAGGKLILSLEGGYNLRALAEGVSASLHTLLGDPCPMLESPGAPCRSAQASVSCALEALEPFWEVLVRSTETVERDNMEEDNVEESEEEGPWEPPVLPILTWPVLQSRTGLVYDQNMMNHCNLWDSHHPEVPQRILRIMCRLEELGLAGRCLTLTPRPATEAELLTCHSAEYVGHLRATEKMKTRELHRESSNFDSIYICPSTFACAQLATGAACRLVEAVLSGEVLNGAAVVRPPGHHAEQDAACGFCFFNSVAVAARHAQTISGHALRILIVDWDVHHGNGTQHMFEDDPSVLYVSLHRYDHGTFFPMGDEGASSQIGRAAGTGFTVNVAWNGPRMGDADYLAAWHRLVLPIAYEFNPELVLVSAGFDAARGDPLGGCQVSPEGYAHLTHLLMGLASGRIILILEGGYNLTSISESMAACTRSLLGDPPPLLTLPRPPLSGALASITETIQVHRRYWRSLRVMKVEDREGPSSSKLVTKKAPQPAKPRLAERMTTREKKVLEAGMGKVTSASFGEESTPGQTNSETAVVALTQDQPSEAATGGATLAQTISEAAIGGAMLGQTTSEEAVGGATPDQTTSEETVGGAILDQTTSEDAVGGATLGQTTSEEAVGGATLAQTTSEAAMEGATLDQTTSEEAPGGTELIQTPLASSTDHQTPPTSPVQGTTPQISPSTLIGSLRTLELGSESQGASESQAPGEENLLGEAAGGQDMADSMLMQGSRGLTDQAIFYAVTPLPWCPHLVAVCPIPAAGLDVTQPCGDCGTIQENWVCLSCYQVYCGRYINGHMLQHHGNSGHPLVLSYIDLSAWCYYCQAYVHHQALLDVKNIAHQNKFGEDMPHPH
The following compounds are listed with their measured HDAC6 selectivity (fold) values.
State the answer as a number, implicitly in fold.

Examples with answers:
{"MOLECULE SMILES": "CN1CCC(Nc2ccc(F)c(-c3cn(Cc4ccc(-c5nnc(C(F)F)o5)cc4F)nn3)c2)CC1", "HDAC6 selectivity (fold)": 1677}
{"MOLECULE SMILES": "CN(C)CCN(C)Cc1cccc(-c2cn(Cc3ccc(-c4nnc(C(F)F)o4)cn3)nn2)c1", "HDAC6 selectivity (fold)": 1190}
{"MOLECULE SMILES": "CN(C)CC(=O)Nc1cccc(-c2cn(Cc3ccc(-c4nnc(C(F)F)o4)cc3F)nn2)c1", "HDAC6 selectivity (fold)": 1562}
{"MOLECULE SMILES": "FC(F)c1nnc(-c2ccc(Cn3cc(-c4cccc(NC5CCOCC5)c4)nn3)nc2)o1", "HDAC6 selectivity (fold)": 2487}

Query: HDAC6 selectivity (fold); subject: `O=C(c1cccc(-c2cn(Cc3ccc(-c4nnc(C(F)F)o4)cn3)nn2)c1)N1CCOCC1`
920

Find the recorded HDAC6 selectivity (fold) belonging to `CC(C)N1CC(N2CCc3cc(-c4cn(Cc5ccc(-c6nnc(C(F)F)o6)cc5F)nn4)ccc3C2)C1` and report it.
1381

For the compound shown here, `Fc1ccc(-c2cn(Cc3ccc(-c4nnc(C(F)F)o4)cn3)nn2)cc1` , give the reported HDAC6 selectivity (fold).
1818

Suppose we examine the compound `FC(F)c1nnc(-c2ccc(Cn3cc(-c4cccc(CN5CC(F)(F)C5)c4)nn3)nc2)o1` ; what HDAC6 selectivity (fold) value has been reported?
1628

###

biological target: human recombinant HDAC6 (Homo sapiens, UniProt Q9UBN7); construct: purchased Calbiochem Inc. 382180; test: HDAC6 enzyme activity inhibition (HDAC Fluorimetric Drug Discovery Kit); type: biochemical; conditions: HDAC6 over HDAC1
// reported HDAC6 selectivity (fold) for each item listed
Provide the reading as a plain figure in fold.

Previously resolved entries follow.
{"MOLECULE SMILES": "Fc1cc(-c2nnc(C(F)F)o2)ccc1Cn1cc(-c2cccc(C3CN(C4CCC4)C3)c2)nn1", "QUANTITY KIND": "HDAC6 selectivity (fold)", "READOUT VALUE": 1779}
{"MOLECULE SMILES": "CCN1CCN(c2cccc(-c3cn(Cc4ccc(-c5nnc(C(F)F)o5)cn4)nn3)c2F)CC1", "QUANTITY KIND": "HDAC6 selectivity (fold)", "READOUT VALUE": 2475}
{"MOLECULE SMILES": "Fc1cc(-c2nnc(C(F)F)o2)ccc1Cn1cc(-c2ccccc2CNC2COC2)nn1", "QUANTITY KIND": "HDAC6 selectivity (fold)", "READOUT VALUE": 308}

Which HDAC6 selectivity (fold) reading was recorded for the compound `Fc1cc(-c2cn(Cc3ncc(-c4nnc(C(F)F)o4)cc3F)nn2)ccc1CN1CCCC1` ?
856

Record request: HDAC6 selectivity (fold) value, item `CCN1CC(c2cccc(-c3cn(Cc4ccc(-c5nnc(C(F)F)o5)cc4)nn3)c2)C1`
1381

GET /values?readout=HDAC6 selectivity (fold)&item= `Fc1cc(-c2nnc(C(F)F)o2)ccc1Cn1cc(-c2cccc(N3CCN(C4CCC4)CC3)n2)nn1`
976

# lookup: HDAC6 selectivity (fold) of `CC1(C)CCN(Cc2ccc(-c3cn(Cc4ccc(-c5nnc(C(F)F)o5)cc4F)nn3)cn2)CC1`
952

FYI, the data here is from patent US20230257372A1.
